This listing pairs binders with measured EC50, pseudovirus neutralization.
target: BK virus VP1 protein, genotype III (BK virus); assay: cell-based or functional assay
Reported Metric: EC50, pseudovirus neutralization (nM)

INSERT INTO results (binder, reported_metric, recorded_result) VALUES
  ('11D12 (antibody, V domains shown) VH: EVQLVESGGGLVQPGGSLRLSCAASGFTFSSYEMNWVRQAPGKGLEWVSYISSGGSSIKYADSVRGRFTFSRDNAENSVFLQMNSLRGEDTAVYYCARVGGSYYYSYAMDVWGQGTAVTVSS VL: DIQLTQSPSFLSASVGDRVTITCWASQDISSYLAWYQQKPGKAPKLLIYAASTLQSGVPSRFSGSGSGTEFTLTISSLQPEDFATYYCQQPNNYPFSFGPGTKVDVK', 'EC50, pseudovirus neutralization', 6.38),
  ('7E5 (antibody, V domains shown) VH: EVQLLESGGGLIQPGGSLRLSCAASGFTFSGFAMSWVRQAPGKGLEWVSGISGSGDITYYGDSVKGRFTISRDNSKSTLYLQMNSLRDADTAVYYCGKDPYNWNHGVYGMDVWGQGTTVTVSS VL: DIQMTQSPSSLSASVGDRVTITCRASQSISTYLNWYQQKPGKAPKFLIYGASSLQSGVPSRFSGSGSGTDFSLTISSLHPGDFATYYCQQSYNIPLTFGGGTKVEIK', 'EC50, pseudovirus neutralization', 0.415),
  ('6H12 (antibody, V domains shown) VH: EVQLVESGGGLVQPGGSLRLSCAASGFTFSSYEMNWVRQAPGKGLEWVSYISSGGSSIKYADSVRGRFAFSRDNAENSVHLQMNSLRAEDTAVYYCARVGGSYYYSYAMDVWGQGTAVTVSS VL: DIQLTQSPSFLSASVGDRVTITCWASQDISSYLAWYQQKPGKAPKLLIYAASTLQSGVPSRFTGSGSGTEFTLTISSLQPEDFATYYCQQPHNSPFSFGPGTKVDVK', 'EC50, pseudovirus neutralization', 0.127);
